target: ALK tyrosine kinase receptor (Homo sapiens)
pIC50: −log10 of the molar value.
value_type: pIC50

compound | value_type | test_result
CNC(=O)Nc1ccc2c(c1)CC[C@@]21OC(=O)N(CC(=O)N(Cc2ccc(F)cc2)[C@@H](C)C(F)(F)F)C1=O | pIC50 | < 5.00

###

target: Dual specificity tyrosine-phosphorylation-regulated kinase 1B (Homo sapiens)

molecule | target_or_system | IC50
CNC(=O)Nc1ccc2c(c1)CC[C@@]21OC(=O)N(CC(=O)N(Cc2ccc(F)cc2)[C@@H](C)C(F)(F)F)C1=O [A-485] | Dual specificity tyrosine-phosphorylation-regulated kinase 1B (Homo sapiens) | > 10 µM

###

experiment: Cmax in CB17 SCID mouse xenografted with LuCaP-77 CR cell at 200 mg/kg, ip administered for 7 days; type: ADME, organism-based; conditions: in vivo, time 7 day
value_type: Cmax

compound | value_type | test_result
CNC(=O)Nc1ccc2c(c1)CC[C@@]21OC(=O)N(CC(=O)N(Cc2ccc(F)cc2)[C@@H](C)C(F)(F)F)C1=O | Cmax | 242 µg/mL

###

target: MAO-B (Homo sapiens, UniProt P27338); assay: Inhibition of human recombinant MAO-B at 10 uM by radioligand binding assay relative to control
Sequence (P27338 whole entry): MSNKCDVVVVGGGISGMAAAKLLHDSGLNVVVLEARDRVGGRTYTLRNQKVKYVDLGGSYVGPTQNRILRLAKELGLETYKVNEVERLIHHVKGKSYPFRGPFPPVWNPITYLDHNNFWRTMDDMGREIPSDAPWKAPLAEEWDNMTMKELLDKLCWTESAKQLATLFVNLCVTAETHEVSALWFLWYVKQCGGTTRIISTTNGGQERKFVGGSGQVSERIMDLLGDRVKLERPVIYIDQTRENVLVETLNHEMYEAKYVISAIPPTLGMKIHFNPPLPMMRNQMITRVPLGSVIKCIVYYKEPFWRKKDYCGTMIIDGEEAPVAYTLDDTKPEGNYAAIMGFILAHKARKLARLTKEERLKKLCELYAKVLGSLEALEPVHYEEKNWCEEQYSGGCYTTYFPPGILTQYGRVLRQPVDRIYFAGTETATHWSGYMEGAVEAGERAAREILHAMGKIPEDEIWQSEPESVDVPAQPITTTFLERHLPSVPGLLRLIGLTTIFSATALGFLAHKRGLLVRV
The reader will find reported inhibition at 10 µM values listed item by item below.
value_type: inhibition at 10 µM (%)

compound | test_result
CNC(=O)Nc1ccc2c(c1)[C@@]1(CC2)OC(=O)N(CC(=O)N(Cc2ccc(F)cc2)[C@@H](C)C(F)(F)F)C1=O | 0
CNC(=O)Nc1ccc2c(c1)CC[C@@]21OC(=O)N(CC(=O)N(Cc2ccc(F)cc2)[C@@H](C)C(F)(F)F)C1=O | -20

###

target: Tyrosine-protein kinase BTK (Homo sapiens, UniProt Q06187)
Sequence (Q06187 whole entry): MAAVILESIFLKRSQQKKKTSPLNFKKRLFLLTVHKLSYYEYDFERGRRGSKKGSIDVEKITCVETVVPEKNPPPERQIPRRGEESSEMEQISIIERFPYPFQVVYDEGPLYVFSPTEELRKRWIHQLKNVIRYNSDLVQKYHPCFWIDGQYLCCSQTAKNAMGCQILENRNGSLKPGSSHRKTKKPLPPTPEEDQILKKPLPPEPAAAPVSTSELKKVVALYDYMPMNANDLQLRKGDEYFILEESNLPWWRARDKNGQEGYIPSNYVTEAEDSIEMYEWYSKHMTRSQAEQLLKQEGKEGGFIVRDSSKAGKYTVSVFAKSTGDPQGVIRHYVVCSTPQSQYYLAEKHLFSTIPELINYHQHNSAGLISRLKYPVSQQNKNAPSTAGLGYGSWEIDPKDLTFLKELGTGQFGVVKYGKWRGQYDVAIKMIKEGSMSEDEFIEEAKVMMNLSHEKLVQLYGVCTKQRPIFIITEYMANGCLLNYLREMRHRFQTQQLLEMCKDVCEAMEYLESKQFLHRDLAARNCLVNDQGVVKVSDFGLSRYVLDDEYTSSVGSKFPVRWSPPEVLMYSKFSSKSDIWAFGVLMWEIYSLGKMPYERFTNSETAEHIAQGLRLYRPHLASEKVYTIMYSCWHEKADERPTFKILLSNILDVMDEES

compound | IC50
CNC(=O)Nc1ccc2c(c1)CC[C@@]21OC(=O)N(CC(=O)N(Cc2ccc(F)cc2)[C@@H](C)C(F)(F)F)C1=O | > 10 µM

###

target: Dual specificity protein kinase CLK2 (Homo sapiens)
pIC50: −log10 of the molar value.

compound | pIC50
CNC(=O)Nc1ccc2c(c1)CC[C@@]21OC(=O)N(CC(=O)N(Cc2ccc(F)cc2)[C@@H](C)C(F)(F)F)C1=O | < 5.00

###

system: HCC38; assay: Antiproliferative activity against human HCC38 cells assessed as inhibition of cell viability incubated for 3 to 5 days by Celltiter-Glo luminescent assay; type: functional, cell-based
pEC50: −log10 of the molar value.

compound | pEC50
CNC(=O)Nc1ccc2c(c1)CC[C@@]21OC(=O)N(CC(=O)N(Cc2ccc(F)cc2)[C@@H](C)C(F)(F)F)C1=O | < 5.00

###

biological target: Platelet-derived growth factor receptor beta (Homo sapiens)
pIC50: −log10 of the molar value.

compound | pIC50
CNC(=O)Nc1ccc2c(c1)CC[C@@]21OC(=O)N(CC(=O)N(Cc2ccc(F)cc2)[C@@H](C)C(F)(F)F)C1=O [A-485] | < 5.00

###

target: Glycogen synthase kinase-3 alpha (Homo sapiens)
Sequence (P49840 whole entry): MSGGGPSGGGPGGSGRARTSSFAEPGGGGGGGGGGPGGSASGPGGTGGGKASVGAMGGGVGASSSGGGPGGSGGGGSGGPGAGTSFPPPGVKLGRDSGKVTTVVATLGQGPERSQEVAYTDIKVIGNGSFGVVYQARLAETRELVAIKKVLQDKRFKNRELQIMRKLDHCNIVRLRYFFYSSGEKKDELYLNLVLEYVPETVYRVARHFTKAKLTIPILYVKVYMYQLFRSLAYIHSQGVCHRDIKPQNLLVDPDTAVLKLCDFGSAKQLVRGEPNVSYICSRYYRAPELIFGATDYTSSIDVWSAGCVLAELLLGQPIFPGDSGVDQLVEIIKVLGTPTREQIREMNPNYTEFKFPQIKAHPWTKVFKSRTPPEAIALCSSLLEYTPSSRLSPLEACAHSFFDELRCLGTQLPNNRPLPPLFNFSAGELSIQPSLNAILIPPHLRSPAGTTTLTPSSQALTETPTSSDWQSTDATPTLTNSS

compound | IC50
CNC(=O)Nc1ccc2c(c1)CC[C@@]21OC(=O)N(CC(=O)N(Cc2ccc(F)cc2)[C@@H](C)C(F)(F)F)C1=O [A-485] | > 10 µM

###

assay: cells; settings: Homo sapiens, MINO
pEC50: −log10 of the molar value.
value_type: pEC50

compound | test_result
CNC(=O)Nc1ccc2c(c1)CC[C@@]21OC(=O)N(CC(=O)N(Cc2ccc(F)cc2)[C@@H](C)C(F)(F)F)C1=O [A-485] | 6.28

###

tested on: THP-1; test: Antiproliferative activity against human THP-1 cells assessed as inhibition of cell viability incubated for 3 to 5 days by Celltiter-Glo luminescent assay; format: functional, cell-based

compound | EC50
CNC(=O)Nc1ccc2c(c1)CC[C@@]21OC(=O)N(CC(=O)N(Cc2ccc(F)cc2)[C@@H](C)C(F)(F)F)C1=O | 3.51 µM

###

tested on: U-2940; test: Antiproliferative activity against human U-2940 cells assessed as inhibition of cell viability incubated for 3 to 5 days by Celltiter-Glo luminescent assay; type: functional, cell-based
pEC50: −log10 of the molar value.

compound | pEC50
CNC(=O)Nc1ccc2c(c1)CC[C@@]21OC(=O)N(CC(=O)N(Cc2ccc(F)cc2)[C@@H](C)C(F)(F)F)C1=O | 5.88

###

biological target: Fibroblast growth factor receptor 1 (Homo sapiens, UniProt P11362)
pIC50: −log10 of the molar value.

compound | target_or_system | pIC50
CNC(=O)Nc1ccc2c(c1)CC[C@@]21OC(=O)N(CC(=O)N(Cc2ccc(F)cc2)[C@@H](C)C(F)(F)F)C1=O | Fibroblast growth factor receptor 1 (Homo sapiens, UniProt P11362) | < 5.00

###

target: Dual specificity mitogen-activated protein kinase kinase 2 (Homo sapiens); test: Inhibition of MEK2 (unknown origin)
Sequence (P36507 whole entry): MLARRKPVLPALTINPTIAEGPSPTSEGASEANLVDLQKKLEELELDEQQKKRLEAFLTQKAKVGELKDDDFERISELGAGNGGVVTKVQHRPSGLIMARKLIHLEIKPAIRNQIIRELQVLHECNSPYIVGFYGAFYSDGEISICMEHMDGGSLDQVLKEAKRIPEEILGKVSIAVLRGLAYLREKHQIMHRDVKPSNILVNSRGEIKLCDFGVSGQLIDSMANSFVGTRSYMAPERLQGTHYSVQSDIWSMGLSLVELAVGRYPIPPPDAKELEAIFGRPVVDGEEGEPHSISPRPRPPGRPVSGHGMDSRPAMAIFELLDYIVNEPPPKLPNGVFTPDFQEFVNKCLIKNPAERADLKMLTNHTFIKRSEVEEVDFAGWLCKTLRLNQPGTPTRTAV
value_type: IC50

compound | test_result
CNC(=O)Nc1ccc2c(c1)CC[C@@]21OC(=O)N(CC(=O)N(Cc2ccc(F)cc2)[C@@H](C)C(F)(F)F)C1=O | > 10 µM

###

molecular target: Activated CDC42 kinase 1 (Homo sapiens); test: Inhibition of TNK2 (unknown origin)
Sequence (Q07912 whole entry): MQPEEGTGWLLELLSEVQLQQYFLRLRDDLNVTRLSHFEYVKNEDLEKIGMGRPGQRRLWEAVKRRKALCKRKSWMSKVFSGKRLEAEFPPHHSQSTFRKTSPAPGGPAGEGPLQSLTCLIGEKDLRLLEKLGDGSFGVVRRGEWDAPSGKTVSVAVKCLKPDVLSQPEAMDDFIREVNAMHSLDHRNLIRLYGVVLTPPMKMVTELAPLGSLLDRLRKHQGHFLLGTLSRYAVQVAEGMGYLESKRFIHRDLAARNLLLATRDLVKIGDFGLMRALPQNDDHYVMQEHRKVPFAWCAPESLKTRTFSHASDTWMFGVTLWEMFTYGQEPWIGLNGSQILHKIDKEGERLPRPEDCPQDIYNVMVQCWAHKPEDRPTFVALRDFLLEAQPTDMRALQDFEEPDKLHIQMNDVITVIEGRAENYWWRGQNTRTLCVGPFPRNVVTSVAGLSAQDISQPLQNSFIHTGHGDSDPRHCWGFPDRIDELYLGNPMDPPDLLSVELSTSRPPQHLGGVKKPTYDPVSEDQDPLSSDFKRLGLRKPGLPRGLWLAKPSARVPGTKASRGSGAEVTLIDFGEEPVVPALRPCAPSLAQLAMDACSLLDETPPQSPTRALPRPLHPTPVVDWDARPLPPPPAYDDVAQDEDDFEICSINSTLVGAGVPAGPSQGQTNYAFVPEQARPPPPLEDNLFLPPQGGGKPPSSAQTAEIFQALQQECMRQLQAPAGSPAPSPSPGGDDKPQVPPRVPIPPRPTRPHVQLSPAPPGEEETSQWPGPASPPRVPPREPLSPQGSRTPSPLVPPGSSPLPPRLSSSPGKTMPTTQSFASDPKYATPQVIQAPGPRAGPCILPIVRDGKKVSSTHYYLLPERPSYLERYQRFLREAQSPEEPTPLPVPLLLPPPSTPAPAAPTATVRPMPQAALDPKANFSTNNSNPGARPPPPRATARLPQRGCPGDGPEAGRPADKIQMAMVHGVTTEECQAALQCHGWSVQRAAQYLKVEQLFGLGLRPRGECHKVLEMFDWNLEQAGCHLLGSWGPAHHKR

molecule | IC50
CNC(=O)Nc1ccc2c(c1)CC[C@@]21OC(=O)N(CC(=O)N(Cc2ccc(F)cc2)[C@@H](C)C(F)(F)F)C1=O [A-485] | > 10 µM

###

biological target: Mitogen-activated protein kinase kinase kinase kinase 4 (Homo sapiens); test: Inhibition of MAP4K4 (unknown origin)
Sequence (O95819 whole entry): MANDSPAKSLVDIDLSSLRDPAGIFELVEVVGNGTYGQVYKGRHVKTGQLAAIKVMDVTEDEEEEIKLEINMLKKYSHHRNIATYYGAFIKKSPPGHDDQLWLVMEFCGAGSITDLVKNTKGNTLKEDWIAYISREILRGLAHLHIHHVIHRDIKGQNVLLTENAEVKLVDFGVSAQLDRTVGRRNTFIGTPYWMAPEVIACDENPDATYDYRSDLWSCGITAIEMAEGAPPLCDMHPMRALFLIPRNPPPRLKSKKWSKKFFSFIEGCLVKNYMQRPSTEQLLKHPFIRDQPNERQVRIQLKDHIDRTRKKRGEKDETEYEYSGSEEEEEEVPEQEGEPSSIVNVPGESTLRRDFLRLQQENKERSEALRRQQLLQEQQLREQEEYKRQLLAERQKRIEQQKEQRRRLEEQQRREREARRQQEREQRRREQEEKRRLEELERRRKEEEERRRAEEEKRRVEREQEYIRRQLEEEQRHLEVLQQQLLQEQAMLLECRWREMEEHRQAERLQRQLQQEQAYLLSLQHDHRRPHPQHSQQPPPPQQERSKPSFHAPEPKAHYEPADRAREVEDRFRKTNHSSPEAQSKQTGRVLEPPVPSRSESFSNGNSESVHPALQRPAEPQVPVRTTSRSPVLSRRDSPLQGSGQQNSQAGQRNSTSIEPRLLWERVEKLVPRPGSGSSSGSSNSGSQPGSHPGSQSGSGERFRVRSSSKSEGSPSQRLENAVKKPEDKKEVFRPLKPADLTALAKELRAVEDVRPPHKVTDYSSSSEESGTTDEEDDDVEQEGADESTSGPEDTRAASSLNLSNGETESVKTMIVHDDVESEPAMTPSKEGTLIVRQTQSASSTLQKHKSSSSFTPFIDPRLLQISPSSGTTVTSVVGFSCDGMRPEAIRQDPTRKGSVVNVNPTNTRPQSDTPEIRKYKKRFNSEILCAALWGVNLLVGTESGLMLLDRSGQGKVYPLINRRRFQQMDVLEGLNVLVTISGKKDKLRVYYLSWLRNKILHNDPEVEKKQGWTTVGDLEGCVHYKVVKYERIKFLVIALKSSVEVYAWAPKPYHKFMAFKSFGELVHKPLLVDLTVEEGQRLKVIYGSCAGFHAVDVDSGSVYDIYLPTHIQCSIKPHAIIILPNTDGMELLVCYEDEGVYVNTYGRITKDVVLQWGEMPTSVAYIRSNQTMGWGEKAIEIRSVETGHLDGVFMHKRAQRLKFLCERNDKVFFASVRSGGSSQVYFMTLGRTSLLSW

compound | IC50
CNC(=O)Nc1ccc2c(c1)CC[C@@]21OC(=O)N(CC(=O)N(Cc2ccc(F)cc2)[C@@H](C)C(F)(F)F)C1=O | > 10 µM

###

tested on: NU-DHL-1; experiment: Antiproliferative activity against human NU-DHL-1 cells assessed as inhibition of cell viability incubated for 3 to 5 days by Celltiter-Glo luminescent assay; type: functional, cell-based
pEC50: −log10 of the molar value.

compound | target_or_system | pEC50
CNC(=O)Nc1ccc2c(c1)CC[C@@]21OC(=O)N(CC(=O)N(Cc2ccc(F)cc2)[C@@H](C)C(F)(F)F)C1=O | NU-DHL-1 | 6.28

###

system: NCI-H23; assay: Antiproliferative activity against human NCI-H23 cells assessed as inhibition of cell viability incubated for 3 to 5 days by Celltiter-Glo luminescent assay; format: functional, cell-based

compound | EC50 / µM
CNC(=O)Nc1ccc2c(c1)CC[C@@]21OC(=O)N(CC(=O)N(Cc2ccc(F)cc2)[C@@H](C)C(F)(F)F)C1=O [A-485] | 1.79

###

biological target: Epithelial discoidin domain-containing receptor 1 (Homo sapiens, UniProt Q08345)

compound | IC50
CNC(=O)Nc1ccc2c(c1)CC[C@@]21OC(=O)N(CC(=O)N(Cc2ccc(F)cc2)[C@@H](C)C(F)(F)F)C1=O | > 10 µM

###

target: Dual specificity mitogen-activated protein kinase kinase 3 (Homo sapiens, UniProt P46734); assay: Inhibition of MAP2K3 (unknown origin)
Sequence (P46734 whole entry): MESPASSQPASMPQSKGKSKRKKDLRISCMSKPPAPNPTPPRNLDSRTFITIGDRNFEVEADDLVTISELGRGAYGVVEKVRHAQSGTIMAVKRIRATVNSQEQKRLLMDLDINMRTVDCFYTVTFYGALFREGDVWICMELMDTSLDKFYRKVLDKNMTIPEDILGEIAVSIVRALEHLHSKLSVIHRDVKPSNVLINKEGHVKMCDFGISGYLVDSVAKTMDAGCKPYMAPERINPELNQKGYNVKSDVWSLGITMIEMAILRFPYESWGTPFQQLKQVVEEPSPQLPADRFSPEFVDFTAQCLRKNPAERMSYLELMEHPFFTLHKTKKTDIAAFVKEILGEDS
pIC50: −log10 of the molar value.

compound | pIC50
CNC(=O)Nc1ccc2c(c1)CC[C@@]21OC(=O)N(CC(=O)N(Cc2ccc(F)cc2)[C@@H](C)C(F)(F)F)C1=O | < 5.00

###

tested on: DOHH-2; test: Antiproliferative activity against human DOHH-2 cells assessed as inhibition of cell viability incubated for 3 to 5 days by Celltiter-Glo luminescent assay; format: functional, cell-based
value_type: EC50

compound | value_type | test_result
CNC(=O)Nc1ccc2c(c1)CC[C@@]21OC(=O)N(CC(=O)N(Cc2ccc(F)cc2)[C@@H](C)C(F)(F)F)C1=O | EC50 | 0.75 µM

###

test: Half life in CB17 SCID mouse xenografted with LuCaP-77 CR cell at 50 mg/kg, ip administered for 7 days; assay type: ADME, organism-based; conditions: in vivo, time 7 day
value_type: half-life

compound | test_result
CNC(=O)Nc1ccc2c(c1)CC[C@@]21OC(=O)N(CC(=O)N(Cc2ccc(F)cc2)[C@@H](C)C(F)(F)F)C1=O | 1.9 h

###

test system: 4T1; assay: Antiproliferative activity against mouse 4T1 cells assessed as inhibition of cell viability incubated for 3 to 5 days by Celltiter-Glo luminescent assay; type: functional, cell-based
pEC50: −log10 of the molar value.

compound | target_or_system | pEC50
CNC(=O)Nc1ccc2c(c1)CC[C@@]21OC(=O)N(CC(=O)N(Cc2ccc(F)cc2)[C@@H](C)C(F)(F)F)C1=O | 4T1 | < 5.00

###

Biological target: Aurora kinase A (Homo sapiens)
Sequence (O14965 whole entry): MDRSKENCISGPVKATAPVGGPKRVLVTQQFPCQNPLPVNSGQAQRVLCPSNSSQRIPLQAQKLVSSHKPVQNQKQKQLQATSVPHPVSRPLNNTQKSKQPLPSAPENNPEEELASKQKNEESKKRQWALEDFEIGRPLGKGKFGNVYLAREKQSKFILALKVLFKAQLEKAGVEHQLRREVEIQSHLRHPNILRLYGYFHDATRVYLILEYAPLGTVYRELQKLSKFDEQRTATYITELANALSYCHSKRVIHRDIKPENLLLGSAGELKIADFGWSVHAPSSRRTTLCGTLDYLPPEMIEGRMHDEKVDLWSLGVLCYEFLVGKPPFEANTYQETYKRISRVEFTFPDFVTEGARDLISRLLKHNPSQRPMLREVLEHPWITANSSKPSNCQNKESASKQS
pIC50: −log10 of the molar value.

compound | pIC50
CNC(=O)Nc1ccc2c(c1)CC[C@@]21OC(=O)N(CC(=O)N(Cc2ccc(F)cc2)[C@@H](C)C(F)(F)F)C1=O | < 5.00

Cited source: ChEMBL document CHEMBL5649168
